Values compiled from the supplement of paper PMC7125110.

B1: glmS ribozyme (parent)
chain: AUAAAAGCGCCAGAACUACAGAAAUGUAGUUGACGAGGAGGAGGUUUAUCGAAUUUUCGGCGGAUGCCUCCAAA

variants of: B1; assay: self-cleavage kobs at 10000 uM GlcN6P; higher = faster cleavage; RNA array; conditions: with glucosamine-6-phosphate
Variants at the floor of the assay were thinned out.
attributeMeasured: self-cleavage kobs at 10000 uM GlcN6P

>  <mutationSpec>
A33G G37A U69G

>  <result>
< 1e-05 s⁻¹

$$$$
>  <mutationSpec>
A15U C50A G51A A53G

>  <result>
< 1e-05 s⁻¹

$$$$
>  <mutationSpec>
A48U A64U

>  <result>
8.33e-05 s⁻¹

$$$$
>  <mutationSpec>
G7U U57A

>  <result>
< 1e-05 s⁻¹

$$$$
>  <mutationSpec>
G37C A64C C67G

>  <result>
< 1e-05 s⁻¹

$$$$
>  <mutationSpec>
C16A G35C A64C

>  <result>
< 1e-05 s⁻¹

$$$$
>  <mutationSpec>
G29A U49C U69A

>  <result>
< 1e-05 s⁻¹

$$$$
>  <mutationSpec>
A15C U65G

>  <result>
0.00111 s⁻¹

$$$$
>  <mutationSpec>
G7C G37C

>  <result>
< 1e-05 s⁻¹

$$$$
>  <mutationSpec>
U46G C58G

>  <result>
2.44e-05 s⁻¹

$$$$
>  <mutationSpec>
A12C A36G A64C

>  <result>
< 1e-05 s⁻¹

$$$$
>  <mutationSpec>
C10U A36C U69G

>  <result>
0.000116 s⁻¹

$$$$
>  <mutationSpec>
A48G U65C

>  <result>
< 1e-05 s⁻¹

$$$$
>  <mutationSpec>
C8A G63A

>  <result>
< 1e-05 s⁻¹

$$$$
>  <mutationSpec>
C8U G66U

>  <result>
< 1e-05 s⁻¹

$$$$
>  <mutationSpec>
U49C C70U

>  <result>
< 1e-05 s⁻¹

$$$$
>  <mutationSpec>
G41U C61A

>  <result>
< 1e-05 s⁻¹

$$$$
>  <mutationSpec>
G60A G63C

>  <result>
< 1e-05 s⁻¹

$$$$
>  <mutationSpec>
G7U G60A

>  <result>
< 1e-05 s⁻¹

$$$$
>  <mutationSpec>
G43U G59A G60C

>  <result>
< 1e-05 s⁻¹

$$$$
>  <mutationSpec>
A14C G41C

>  <result>
3.51e-05 s⁻¹

$$$$
>  <mutationSpec>
C11G G32A U65G

>  <result>
< 1e-05 s⁻¹

$$$$
